The origin of these recorded values is the Human Domainome abundance scans (Beltran et al. 2025).

B1: Double-stranded RNA-binding protein Staufen homolog 1, residues 183 to 249; numbered along this chain, O95793 (parent)
chain: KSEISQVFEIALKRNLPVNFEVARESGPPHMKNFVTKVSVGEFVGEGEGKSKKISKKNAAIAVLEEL

- Variants of: B1
- experiment notes: abundance fitness (aPCA) (normalised: wild type 0, dead -1); higher = more abundant; growth selection in yeast, the domain comes from the species named
- experimental setup: Homo sapiens
result type: abundance fitness

variant_code=N58Y numeric_result=-0.4
variant_code=V18L numeric_result=-0.404
variant_code=E42I numeric_result=-0.407
